assay: protein stability index of a GFP-peptide fusion (yeast GPS) (PSI 1-4); higher = more stable; sorted into four equal gates, so the index is relative within each strain; conditions: pdr5∆
just bin them by protein stability index: interval 1 (below 2), interval 2 (2 to below 3), interval 3 (3 or more)

Residue codes: ELVVFLPALCKKMGVPY [RPL8A]
Class: interval 2
//
Residue codes: SPELKADLRPLQIKSIR [RPS7B]
Class: interval 2
//
Residue codes: EKKLMQDNKQLYQIWIV [YDL116W/NUP84]
Class: interval 1
//
Residue codes: LEGEEIKSEEKKGKSSD [RPN1]
Class: interval 2
//
Residue codes: PNMSICIFGDAFDVDRA [RPL1A]
Class: interval 2

stdin: # bin lookup: classify KRKWSYVLYAKIVVLSR [RRP43] by its protein stability index
stdout: interval 2

stdin: # bin lookup: classify SIREQVHMYHKSLALLG [SNF5] by its protein stability index
stdout: interval 1

stdin: # bin lookup: classify EELRDLYQTYHVLVGDL [FAS1] by its protein stability index
stdout: interval 2

stdin: # bin lookup: classify KVSSLKMFIQRILAMCV [YCS4] by its protein stability index
stdout: interval 2

stdin: # bin lookup: classify INDPTNKEYTLVHGIFG [SIN4] by its protein stability index
stdout: interval 2

stdin: # bin lookup: classify LNAELESKLIPQENDLE [SMC3] by its protein stability index
stdout: interval 3

stdin: # bin lookup: classify PNSERSGTPTLKKNIEP [YOR098C/NUP1] by its protein stability index
stdout: interval 3

====

Measured protein stability index, listed per entry.
assay: protein stability index of a GFP-peptide fusion (yeast GPS) (PSI 1-4); higher = more stable; sorted into four equal gates, so the index is relative within each strain; settings: doa10∆
In your answer, state the number alone without any accompanying words.

Examples with their reported protein stability index follow.
Residue codes: AGQLALDLANSGDESNV [YDL116W/NUP84]
protein stability index: 2.93
//
Residue codes: PKVTPQMMQQAQQKLKQ [SRP54]
protein stability index: 1.42
//
Residue codes: GISKKTRIAGVVYHPSN [RPS8A]
protein stability index: 2.53
//
Residue codes: SSKPAFNLISNAGTEKE [YLR335W/NUP2]
protein stability index: 3.13

stdin: Which protein stability index value is on record for SENHTESDAPPKSTAPI [YOR098C/NUP1] ?
stdout: 2.75

stdin: Which protein stability index value is on record for GSFKYITARSAFVEFGA [SWP82] ?
stdout: 2.62

stdin: Which protein stability index value is on record for TFIYFAYFLIIVPVIST [COB] ?
stdout: 1.68

stdin: Which protein stability index value is on record for EMTLPTSPLYMDPGAPL [SSN2] ?
stdout: 3.07

stdin: Which protein stability index value is on record for SAGFETDLRLSTNGLGM [SNU114] ?
stdout: 3.43

stdin: Which protein stability index value is on record for VLKFTFTGEKPIITGST [MED8] ?
stdout: 2.01

stdin: Which protein stability index value is on record for GDDVVNDVQGIDDVQTI [RPP1] ?
stdout: 3.2

stdin: Which protein stability index value is on record for ELEEQESESERKYDLFQ [SMC2] ?
stdout: 3.32

stdin: Which protein stability index value is on record for QGRFRGNLSGKRVDFSG [RPO31] ?
stdout: 3.36

stdin: Which protein stability index value is on record for LSAADIVAQSEVEVSTR [RPO31] ?
stdout: 2.33

====

experiment: protein stability index of a GFP-peptide fusion (yeast GPS) (PSI 1-4); higher = more stable; sorted into four equal gates, so the index is relative within each strain; conditions: pdr5∆
Readout kind: protein stability index
In your answer, state the number alone without any accompanying words.

Residue codes: KTSKDIAVLRSKEWFQL [FAS1]
protein stability index: 2.07

Residue codes: KAELPQWYTLQSQLNVT [MED8]
protein stability index: 2.9

Now for another entry.
stdin: Which protein stability index value is on record for IPGLSAGVNNDNTKESK [RTT102] ?
stdout: 3.52

====

test: protein stability index of a GFP-peptide fusion (yeast GPS) (PSI 1-4); higher = more stable; sorted into four equal gates, so the index is relative within each strain; conditions: pdr5∆
Measured protein stability index, listed per entry.
In your answer, state the number alone without any accompanying words.

Examples with their reported protein stability index follow.
Residue codes: SKKTSPKATSSAGAVFK [YOR098C/NUP1]
protein stability index: 2.42
--
Residue codes: RRLAFLGIKVAELTGDS [BRR2]
protein stability index: 2.24
--
Residue codes: SQPNNTPSFSFGKTTAN [YLR335W/NUP2]
protein stability index: 2.84
--
Residue codes: VPRTADRSASRAVFLFR [RPC82]
protein stability index: 3.53
--
Residue codes: SPFGAYGEAPTSPGFGV [RPO21]
protein stability index: 3.12
--
Residue codes: DYNLRIYCYFLIMKLGR [SSN8]
protein stability index: 1.12

stdin: Which protein stability index value is on record for VKWYHFDHNDKKLSINS [PRE7] ?
stdout: 2.38

====

test: protein stability index of a GFP-peptide fusion (yeast GPS) (PSI 1-4); higher = more stable; sorted into four equal gates, so the index is relative within each strain; conditions: ubr1∆
Readout kind: protein stability index
In your answer, state the number alone without any accompanying words.

Examples with their reported protein stability index follow.
Residue codes: DDDQIESLKKSPIFEVL [ARP9]
protein stability index: 3.2
--
Residue codes: AAPPSTNFEILNEMLNT [DIS3]
protein stability index: 3.04
--
Residue codes: DHNGVPFPQYPAGMNET [ITC1]
protein stability index: 2.42
--
Residue codes: VGLRSNTHAVLVALKRN [PRE5]
protein stability index: 1.21

Now for another entry.
stdin: Which protein stability index value is on record for FNNQGKLDLFKYFTELS [MED1] ?
stdout: 2.88

====

Measured protein stability index, listed per entry.
assay: protein stability index of a GFP-peptide fusion (yeast GPS) (PSI 1-4); higher = more stable; sorted into four equal gates, so the index is relative within each strain; details: doa10∆

Residue codes: SQLPITPMTRISELPPQ [YGL172W/NUP49]
protein stability index: 2.35
--
Residue codes: LLIIRSLKNTDALLNST [YJL039C/NUP192]
protein stability index: 2.97
--
Residue codes: LSKLCVPVANQFINLAG [QCR7]
protein stability index: 1.98
--
Residue codes: VTQKDICILGILDLCQL [CSI1]
protein stability index: 2.59

Now for another entry.
stdin: Which protein stability index value is on record for NIYNFSPSERIEPLEIN [BRR2] ?
stdout: 2.39

====

assay: protein stability index of a GFP-peptide fusion (yeast GPS) (PSI 1-4); higher = more stable; sorted into four equal gates, so the index is relative within each strain; conditions: pdr5∆
protein stability index of 2 or higher: True. Under 2: False.

Past entries and their recorded results:
Residue codes: TSRTIVRNVKGPVREND [RPS28A]
Class: True

Residue codes: MSTDSIVKASNWRLVEV [RPL14A]
Class: False

Residue codes: STTTSLHVPNLQPPKTS [SMC4]
Class: True

Residue codes: TAEERVGRRAANLRVLN [RPL15A]
Class: True

Residue codes: VQGGNAAPSAADIKAVV [RPP2B]
Class: True

Residue codes: QKDKSDTYKRFKYLLGV [ISW2]
Class: False

Residue codes: DNEGVASKSKKKFNMGK [RPC53]
Class: True

Residue codes: SLAKSSALWSSRKGIAF [ECM29]
Class: False

Residue codes: YWTQYLGLFIHKISFSG [YJL039C/NUP192]
Class: False

Residue codes: SHDASRSLASFEQTAFS [SIR4]
Class: True

stdin: Could you verify whether the entry EQSVKTQNSRHYMVHEA [LIN1] shows protein stability index of no less than 2?
stdout: True

====

test: protein stability index of a GFP-peptide fusion (yeast GPS) (PSI 1-4); higher = more stable; sorted into four equal gates, so the index is relative within each strain; conditions: ubr1∆
Readout kind: protein stability index
In your answer, state the number alone without any accompanying words.

Residue codes: KVKLFHGILDDLETSLS [MED2]
Readout kind: protein stability index
Measured number: 3.36

stdin: Which protein stability index value is on record for SYAGKQVVGPFHTSFSA [SMC4] ?
stdout: 3.13

stdin: Which protein stability index value is on record for KQVLLRLNPYAKVFAAE [RPL4A] ?
stdout: 2.42

====

Measured protein stability index, listed per entry.
assay: protein stability index of a GFP-peptide fusion (yeast GPS) (PSI 1-4); higher = more stable; sorted into four equal gates, so the index is relative within each strain; conditions: san1∆
In your answer, state the number alone without any accompanying words.

Examples with their reported protein stability index follow.
Residue codes: VNDNPDIEAGDDDDNNE [DIS3]
protein stability index: 2.73
//
Residue codes: YKNLDRGFSKDLKSKAD [RRP6]
protein stability index: 3.31
//
Residue codes: SKRWAQRTLSKSFYSTA [CYT1]
protein stability index: 2.19
//
Residue codes: GAAGAWMMNGALQILNS [FAS2]
protein stability index: 2.08

Now for another entry.
stdin: Which protein stability index value is on record for PHNSKSLGFLQQSNKLH [RPN3] ?
stdout: 3.1
